- PROCEDURE_SUMMARY: Cmax in Han-Wistar rat plasma at 0.8 mg/kg, po
- Format: ADME, organism-based
- Design: dose 0.8 mg/kg, route oral
QUANTITY: Cmax
Please answer using the number first and the unit second.

The molecule CC(C)[C@H](NC(=O)C(C)(F)F)[C@H](Oc1ccc2c(cnn2-c2ccc(=O)n(C)c2)c1)c1ccccc1 showed Cmax equal to 2000 nM

* * *

- TARGET_UNDER_TEST: UniProt P06401
- Sequence (P06401 whole entry): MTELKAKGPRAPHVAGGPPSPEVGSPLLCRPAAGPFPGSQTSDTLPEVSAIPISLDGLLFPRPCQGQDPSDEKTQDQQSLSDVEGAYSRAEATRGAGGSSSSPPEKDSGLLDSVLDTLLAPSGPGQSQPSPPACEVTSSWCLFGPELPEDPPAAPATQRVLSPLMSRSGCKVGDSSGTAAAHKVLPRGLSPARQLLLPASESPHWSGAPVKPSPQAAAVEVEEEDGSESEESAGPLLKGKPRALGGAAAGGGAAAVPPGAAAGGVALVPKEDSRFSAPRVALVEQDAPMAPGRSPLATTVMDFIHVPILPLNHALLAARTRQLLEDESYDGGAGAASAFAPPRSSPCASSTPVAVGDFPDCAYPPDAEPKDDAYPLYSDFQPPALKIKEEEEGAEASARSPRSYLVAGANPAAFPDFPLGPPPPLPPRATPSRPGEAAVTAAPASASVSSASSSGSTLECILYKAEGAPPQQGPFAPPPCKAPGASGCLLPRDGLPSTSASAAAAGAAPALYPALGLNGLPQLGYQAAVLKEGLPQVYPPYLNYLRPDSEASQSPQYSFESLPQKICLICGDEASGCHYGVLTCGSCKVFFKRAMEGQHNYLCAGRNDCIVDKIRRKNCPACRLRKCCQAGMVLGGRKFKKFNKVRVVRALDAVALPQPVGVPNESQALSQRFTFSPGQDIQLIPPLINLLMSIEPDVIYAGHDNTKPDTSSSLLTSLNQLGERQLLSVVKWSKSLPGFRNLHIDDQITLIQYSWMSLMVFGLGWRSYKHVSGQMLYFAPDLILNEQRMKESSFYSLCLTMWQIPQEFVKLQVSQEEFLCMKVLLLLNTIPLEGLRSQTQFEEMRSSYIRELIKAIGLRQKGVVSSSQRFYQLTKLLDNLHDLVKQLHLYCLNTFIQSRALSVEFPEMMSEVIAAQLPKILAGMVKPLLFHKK
- PROCEDURE_SUMMARY: Displacement of [3H]progesterone from progesterone receptor in human T47D cells after 1200 mins by scintillation counting method
QUANTITY: pIC50
As a rule, pIC50 stands for the negative log10 of the concentration, concentration in M.

The compound CC(C)[C@H](NC(=O)C(C)(F)F)[C@H](Oc1ccc2c(cnn2-c2ccc(=O)n(C)c2)c1)c1ccccc1 [MIZACORAT] showed pIC50 equal to 5.28

* * *

- TARGET_UNDER_TEST: Androgen receptor (Homo sapiens)
- Sequence (P10275 whole entry): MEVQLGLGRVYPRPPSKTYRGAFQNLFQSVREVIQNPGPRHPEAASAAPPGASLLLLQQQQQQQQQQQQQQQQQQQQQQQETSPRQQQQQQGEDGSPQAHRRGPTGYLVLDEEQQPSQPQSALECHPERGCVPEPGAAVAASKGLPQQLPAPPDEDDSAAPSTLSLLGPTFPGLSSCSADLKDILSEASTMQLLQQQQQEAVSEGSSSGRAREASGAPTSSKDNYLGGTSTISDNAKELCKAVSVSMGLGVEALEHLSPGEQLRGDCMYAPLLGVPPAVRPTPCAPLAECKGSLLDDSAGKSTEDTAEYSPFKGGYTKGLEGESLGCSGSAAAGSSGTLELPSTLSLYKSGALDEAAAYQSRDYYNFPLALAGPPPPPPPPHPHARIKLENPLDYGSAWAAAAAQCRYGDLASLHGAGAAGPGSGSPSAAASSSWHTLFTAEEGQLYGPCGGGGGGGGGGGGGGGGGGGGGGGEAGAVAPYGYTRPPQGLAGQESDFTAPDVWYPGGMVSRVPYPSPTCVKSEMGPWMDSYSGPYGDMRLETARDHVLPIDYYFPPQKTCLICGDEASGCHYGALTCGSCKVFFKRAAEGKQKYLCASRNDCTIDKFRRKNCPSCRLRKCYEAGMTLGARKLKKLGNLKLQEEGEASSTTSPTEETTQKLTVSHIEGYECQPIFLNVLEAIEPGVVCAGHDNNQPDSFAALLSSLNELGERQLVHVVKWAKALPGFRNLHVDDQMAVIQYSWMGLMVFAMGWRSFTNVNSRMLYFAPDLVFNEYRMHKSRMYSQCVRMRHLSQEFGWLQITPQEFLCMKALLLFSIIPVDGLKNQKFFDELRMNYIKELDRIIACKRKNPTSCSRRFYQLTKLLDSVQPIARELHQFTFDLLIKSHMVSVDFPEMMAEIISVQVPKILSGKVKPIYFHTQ
QUANTITY: IC50

The compound CC(C)[C@H](NC(=O)C(C)(F)F)[C@H](Oc1ccc2c(cnn2-c2ccc(=O)n(C)c2)c1)c1ccccc1 showed IC50 equal to > 100 µM

* * *

- PROCEDURE_SUMMARY: Terminal half life in Han-Wistar rat at 3.5 mg/kg, po
- Assay type: ADME, organism-based
- EXPERIMENTAL_PARAMETERS: in vivo, read-out: beta t1/2 (converted)
QUANTITY: half-life (h)
Give the value in h but do not write h after it.

The compound C[C@]12C=CC(=O)C=C1CC[C@@H]1[C@@H]2[C@@H](O)C[C@@]2(C)[C@H]1CC[C@]2(O)C(=O)CO showed half-life equal to 2.5

* * *

- PROCEDURE_SUMMARY: Intrinsic clearance in rat hepatocytes assessed per million cells
- Format: ADME, cell-based, Hepatocyte
- EXPERIMENTAL_PARAMETERS: read-out: CLH
Recorded hepatocyte CLint values for a group of compounds are listed next.
Give the value in µL/min/1e6 cells but do not write µL/min/1e6 cells after it.

| CHEMICAL_STRING | READOUT_UNIT | hepatocyte CLint |
| --- | --- | --- |
| C[C@H](NC(=O)C(C)(F)F)[C@H](Oc1ccc(C#N)cc1Cl)c1cnc(C2CC2)nc1 | µL/min/1e6 cells | 3.4 |

The compound COc1ccc([C@@H](Oc2ccc(C#N)cc2Cl)[C@H](C)NC(=O)C(C)(F)F)cn1 showed hepatocyte CLint equal to 93

* * *

Recorded clearance values for a group of compounds are listed next.
- PROCEDURE_SUMMARY: Clearance in rat
- Type: ADME, organism-based
- EXPERIMENTAL_PARAMETERS: in vivo
Give the value in mL/min/kg but do not write mL/min/kg after it.

| CHEMICAL_STRING | RESULT_VALUE |
| --- | --- |
| C[C@H](NC(=O)C(C)(F)F)[C@H](Oc1ccc(C#N)cc1Cl)c1cnc(C2CC2)nc1 | 7.3 |

Now look at this entry.
The compound COc1ccc([C@@H](Oc2ccc(C#N)cc2Cl)[C@H](C)NC(=O)C(C)(F)F)cn1 showed clearance equal to 22

* * *

- TARGET_UNDER_TEST: Glucocorticoid receptor (Homo sapiens, UniProt P04150)
- Sequence (P04150 whole entry): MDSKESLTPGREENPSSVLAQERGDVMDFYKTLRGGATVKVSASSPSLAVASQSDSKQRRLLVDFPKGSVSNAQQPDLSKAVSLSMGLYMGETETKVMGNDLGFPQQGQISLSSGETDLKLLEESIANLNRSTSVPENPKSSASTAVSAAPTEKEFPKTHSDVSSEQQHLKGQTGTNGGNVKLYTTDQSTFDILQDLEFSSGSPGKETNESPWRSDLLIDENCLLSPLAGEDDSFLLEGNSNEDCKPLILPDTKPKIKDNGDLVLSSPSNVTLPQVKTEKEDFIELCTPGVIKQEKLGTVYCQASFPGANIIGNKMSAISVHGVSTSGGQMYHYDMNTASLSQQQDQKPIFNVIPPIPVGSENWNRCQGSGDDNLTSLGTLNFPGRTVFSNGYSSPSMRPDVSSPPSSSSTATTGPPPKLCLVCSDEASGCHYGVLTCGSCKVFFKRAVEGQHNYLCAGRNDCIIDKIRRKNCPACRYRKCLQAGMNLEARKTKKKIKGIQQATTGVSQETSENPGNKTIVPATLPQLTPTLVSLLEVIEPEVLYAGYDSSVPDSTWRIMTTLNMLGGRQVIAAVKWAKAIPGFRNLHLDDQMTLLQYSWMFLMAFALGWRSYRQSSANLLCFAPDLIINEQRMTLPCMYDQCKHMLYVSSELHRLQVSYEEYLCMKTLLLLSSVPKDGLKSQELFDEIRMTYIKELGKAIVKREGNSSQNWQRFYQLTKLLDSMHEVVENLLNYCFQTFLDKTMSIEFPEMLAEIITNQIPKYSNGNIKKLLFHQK
QUANTITY: EC50 (nM)
Give the value in nM but do not write nM after it.

The molecule C[C@H](NC(=O)C(C)(F)F)[C@H](Oc1ccc(C#N)cc1Br)c1cnc(C2CC2)nc1 showed EC50 equal to 6.4

The molecule COc1ccc([C@@H](Oc2ccc(C#N)c(Cl)c2)[C@H](C)NC(=O)C(C)(F)F)cn1 showed EC50 equal to 33

The molecule CC(C)[C@H](NC(=O)C(F)(F)F)[C@H](Oc1ccc2c(cnn2-c2ccc(=O)n(C)c2)c1)c1cccc(Cl)c1 showed EC50 equal to 5.6

The molecule CC(C)[C@H](NC(=O)C(C)(F)F)[C@H](Oc1ccc2c(cnn2-c2cc(F)c(=O)n(C)c2)c1)c1ccccc1 showed EC50 equal to 18
